- Target or system: His-tagged recombinant human AXL cytoplasmic domain (Homo sapiens, UniProt P30530)
- Construct: His-tagged recombinant human AXL cytoplasmic domain
- Sequence (P30530 473-894 limits assumed): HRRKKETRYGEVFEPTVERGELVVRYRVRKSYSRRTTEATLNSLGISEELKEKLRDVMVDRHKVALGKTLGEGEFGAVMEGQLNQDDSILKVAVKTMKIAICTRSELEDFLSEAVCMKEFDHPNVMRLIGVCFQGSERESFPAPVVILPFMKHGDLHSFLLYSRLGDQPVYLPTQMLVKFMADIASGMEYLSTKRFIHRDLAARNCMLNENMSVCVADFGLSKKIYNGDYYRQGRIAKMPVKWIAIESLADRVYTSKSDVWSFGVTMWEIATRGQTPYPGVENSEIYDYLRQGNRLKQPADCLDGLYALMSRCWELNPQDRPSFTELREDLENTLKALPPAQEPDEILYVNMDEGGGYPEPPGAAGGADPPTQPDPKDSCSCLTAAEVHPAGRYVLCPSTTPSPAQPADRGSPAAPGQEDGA
- Protocol description: AXL Enzyme Assay (LanthaScreen Eu Kinase Binding)
- Test parameters: averaged IC50; 60-minute incubation at 22° C.; TR-FRET
- Protocol: Compounds disclosed herein were screened for their ability to inhibit AXL kinase using Invitrogen's LanthaScreen™Eu Kinase Binding technology. […] After a 60-minute incubation at 22° C., the reaction was measured using a PerkinElmer EnVision multimode plate reader via TR-FRET dual wavelength detection, and the percent of control (POC) was calculated using a ratiometric emission factor. […]
pIC50: recorded values
The read-out pIC50 is expressed as -log10 of concentration in moles per litre.

Known results for compounds:
> print(dat)
                                smiles.data  assay.metric  experimental.value
1  CC(C)n1cc(C(=O)Nc2ccc(Oc3ccnc4cc(OC(F)(F)F)ccc34)cn2)c(=O)c(-c2ccc(F)cc2)c1         pIC50                7.80
2  COc1ccc(-c2cn(C(C)C)cc(C(=O)Nc3ccc(Oc4ccnc5cc(OC)c(OC)cc45)cn3)c2=O)cc1         pIC50                8.70
3  COCCn1cc(C(=O)Nc2ccc(Oc3ccnc4cc(OC)c(OC)cc34)cn2)c(=O)c(-c2ccc(F)cc2)c1         pIC50                8.70

For reference, reported pIC50 for CCC(CC)n1cc(C(=O)Nc2ccc(Oc3ccnc4cc(OC)c(OC)cc34)cn2)c(=O)c(-c2ccc(F)cc2F)c1 stands at 8.40

For reference, reported pIC50 for CCCC(CCC)n1cc(C(=O)Nc2ccc(Oc3ccnc4cc(OC)c(OC)cc34)cn2)c(=O)c(-c2ccc(F)cc2F)c1 stands at 7.55

* * *

IC50: recorded values
- Target or system: His-tagged recombinant human AXL cytoplasmic domain (Homo sapiens, UniProt P30530)
- Construct: His-tagged recombinant human AXL cytoplasmic domain
- Sequence (P30530 473-894 limits assumed): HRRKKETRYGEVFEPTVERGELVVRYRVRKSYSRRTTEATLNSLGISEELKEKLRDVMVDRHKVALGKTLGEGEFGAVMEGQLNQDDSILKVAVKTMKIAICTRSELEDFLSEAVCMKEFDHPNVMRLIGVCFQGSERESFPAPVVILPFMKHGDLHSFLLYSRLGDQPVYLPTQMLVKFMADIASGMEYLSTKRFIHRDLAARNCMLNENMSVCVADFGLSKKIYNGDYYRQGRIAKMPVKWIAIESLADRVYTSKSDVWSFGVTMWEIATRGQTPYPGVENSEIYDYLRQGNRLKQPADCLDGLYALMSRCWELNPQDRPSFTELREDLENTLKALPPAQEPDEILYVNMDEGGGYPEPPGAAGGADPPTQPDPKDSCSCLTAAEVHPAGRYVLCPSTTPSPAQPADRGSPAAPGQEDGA
- Protocol description: AXL Enzyme Assay (LanthaScreen Eu Kinase Binding)
- Test parameters: averaged IC50; 60-minute incubation at 22° C.; TR-FRET
Reply with just the number (in nM).

Known results for compounds:
> print(dat)
                                   compound  experimental.value
1  COc1cc2nccc(Oc3ccc(NC(=O)c4cn(CCC(C)C)cc(-c5ccc(F)cc5F)c4=O)nc3)c2cc1OC [Example 36]                   3
2  COc1ccc2nccc(Oc3ccc(NC(=O)c4cn(C(C)C)c(C)c(-c5ccc(F)cc5)c4=O)nc3)c2c1 [Example 33]                   1
3  CCc1c(-c2ccc(F)cc2)c(=O)c(C(=O)Nc2ccc(Oc3ccnc4cc(OC)c(OC)cc34)cn2)cn1C(C)C [Example 29]                   1

For reference, reported IC50 for CNC(=O)Cn1cc(C(=O)Nc2ccc(Oc3ccnc4cc(OC)c(OC)cc34)cn2)c(=O)c(-c2ccc(F)cc2)c1 [Example 22] stands at 2

For reference, reported IC50 for COc1cc2nccc(Oc3ccc(NC(=O)c4cn(CC(=O)N(C)C)cc(-c5ccc(Cl)cc5)c4=O)nc3)c2cc1OC [Example 25] stands at 2

For reference, reported IC50 for COc1cc2nccc(Oc3ccc(NC(=O)c4cn(C)c(C(C)C)c(-c5ccc(F)cc5)c4=O)nc3)c2cc1OC [Example 45] stands at 5

For reference, reported IC50 for COc1ccc2nccc(Oc3ccc(NC(=O)c4cn(CCN(C)C)cc(-c5ccc(F)cc5)c4=O)nc3)c2c1 [Example 47] stands at 1

* * *

- Target or system: human MET kinase F1200I (Homo sapiens, UniProt P08581, F1200I)
- Construct: GST-tagged recombinant human MET kinase domain
- Sequence (P08581 1078-1345 F1200I limits assumed): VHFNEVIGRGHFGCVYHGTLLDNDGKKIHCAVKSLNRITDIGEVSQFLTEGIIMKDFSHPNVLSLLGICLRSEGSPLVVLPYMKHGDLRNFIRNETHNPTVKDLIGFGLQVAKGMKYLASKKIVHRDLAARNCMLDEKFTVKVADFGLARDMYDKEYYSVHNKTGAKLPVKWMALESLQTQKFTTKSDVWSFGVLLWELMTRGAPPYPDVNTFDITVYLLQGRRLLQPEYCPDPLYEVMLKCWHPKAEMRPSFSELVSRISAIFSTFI
- Protocol description: c-Met Enzyme Assay, F1200I mutant
- Test parameters: averaged IC50; F1200I 2 nM; 60-minute incubation at 22° C.
Assay metric: IC50 (nM)
Reply with just the number (in nM).

Known results for compounds:
> print(dat)
                                smiles.data                          target.or.system  assay.metric  quantity.unit  experimental.value
1  COc1cc2nccc(Oc3ccc(NC(=O)c4cn(CCN(C)C)cc(-c5ccc(Cl)cc5)c4=O)nc3)c2cc1OC  human MET kinase F1200I (Homo sapiens, UniProt P08581, F1200I)          IC50             nM                 3.4
2  CCn1cc(C(=O)Nc2ccc(Oc3ccnc4ccc(OC)cc34)cn2)c(=O)c(-c2ccc(F)cc2)c1  human MET kinase F1200I (Homo sapiens, UniProt P08581, F1200I)          IC50             nM                31.6
3  COc1cc2nccc(Oc3cnc(NC(=O)c4cn(C(C)C)c(C)c(-c5ccc(F)cc5)c4=O)nc3)c2cc1OC  human MET kinase F1200I (Homo sapiens, UniProt P08581, F1200I)          IC50             nM                 3.4

Consider the record given below.
For reference, reported IC50 for COc1cc2nccc(Oc3ccc(NC(=O)c4cn(C(C)C)cc(-c5ccc(F)cc5Cl)c4=O)nc3)c2cc1OC stands at 4.3

* * *

log10(IC50): recorded values
- Target or system: human MET kinase D1228H (Homo sapiens, UniProt P08581, D1228H)
- Construct: GST-tagged recombinant human MET kinase domain
- Sequence (P08581 1078-1345 D1228H): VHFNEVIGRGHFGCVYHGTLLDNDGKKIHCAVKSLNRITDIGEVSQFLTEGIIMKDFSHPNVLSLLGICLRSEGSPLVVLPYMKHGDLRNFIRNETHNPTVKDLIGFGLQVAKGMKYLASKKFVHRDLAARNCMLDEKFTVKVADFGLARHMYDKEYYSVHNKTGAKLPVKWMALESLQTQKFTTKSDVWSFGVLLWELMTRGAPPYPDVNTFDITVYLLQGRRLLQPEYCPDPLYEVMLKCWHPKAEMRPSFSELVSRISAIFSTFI
- Protocol description: c-Met Enzyme Assay, D1228H mutant
- Test parameters: averaged IC50; D1228H 2 nM; 60-minute incubation at 22° C.; read-out: D1228 H IC50
Log scale reminder: IC50 in nM, then log10 taken.

> print(dat)
                                   compound                          target.or.system  assay.metric  experimental.value
1  COc1cc2nccc(Oc3ccc(NC(=O)c4cn(CC(=O)N5CCOCC5)cc(-c5ccc(F)cc5F)c4=O)nc3)c2cc1OC [Example 15]  human MET kinase D1228H (Homo sapiens, UniProt P08581, D1228H)   log10(IC50)                2.00
2  COc1ccc(-c2cn(C(C)C)cc(C(=O)Nc3ccc(Oc4ccnc5cc(OC)c(OC)cc45)cn3)c2=O)c(F)c1 [Example 31]  human MET kinase D1228H (Homo sapiens, UniProt P08581, D1228H)   log10(IC50)                1.75
3  COc1cc2nccc(Oc3ccc(NC(=O)c4cn(C(C)C)cc(-c5ccc(F)c(F)c5)c4=O)nc3)c2cc1OC [Example 6]  human MET kinase D1228H (Homo sapiens, UniProt P08581, D1228H)   log10(IC50)                1.08
4  COc1cc2nccc(Oc3ccc(NC(=O)c4cn(CC5CCOCC5)cc(-c5ccc(F)cc5)c4=O)nc3)c2cc1OC [Example 8]  human MET kinase D1228H (Homo sapiens, UniProt P08581, D1228H)   log10(IC50)                0.86
5  CCCn1cc(C(=O)Nc2ccc(Oc3ccnc4cc(OC)c(OC)cc34)cn2)c(=O)c(-c2ccc(F)cc2)c1 [Example 10]  human MET kinase D1228H (Homo sapiens, UniProt P08581, D1228H)   log10(IC50)                0.57
6  COc1cc2nccc(Oc3ccc(NC(=O)c4cn(CC(C)(C)O)cc(-c5ccc(F)cc5)c4=O)nc3)c2cc1OC [Example 9]  human MET kinase D1228H (Homo sapiens, UniProt P08581, D1228H)   log10(IC50)                1.00

For reference, reported log10(IC50) for COc1ccc(-c2cn(C(C)C)cc(C(=O)Nc3ccc(Oc4ccnc5cc(OC)c(OC)cc45)cn3)c2=O)cc1 [Example 30] stands at 1.76
